# method_description: qHTS assay to identify small molecule agonists of the progesterone receptor (PR) signaling pathway - cell viability counter screen (AID 1346799); also: nearly all actives have a fitted effect of over 45% in size
# recorded_conditions: PR-UAS-bla HEK293T viability, CellTiter-Glo luminescence, 16 h; series mostly up to 92.4 µM
Results filed as inconclusive are left out. Calls of active or inactive are those of the source. Calls follow the shape of the full dose curve.
Outcome codes: active, inactive

compound: Cl
class: inactive
--
compound: COP(=S)(OC)Oc1ccc(Sc2ccc(OP(=S)(OC)OC)cc2)cc1
class: inactive
--
compound: CC[n+]1c(-c2ccccc2)c2cc(N)ccc2c2ccc(N)cc21
class: active
--
compound: C[N+](C)(C)CC(=O)[O-]
class: inactive
--
compound: CN(C)c1nc(=O)n(C2CCCCC2)c(=O)n1C
class: inactive
--
compound: Brc1ccc(Br)cc1
class: inactive
--
compound: CCN(CC)C(=O)C(C)Oc1cccc2ccccc12 (stereo not given)
class: inactive
--
compound: ClCc1ccccn1
class: inactive
--
compound: CCNCC
class: inactive
--
compound: COC(=O)Nc1nc2ccccc2[nH]1
class: inactive
--
compound: Cc1cc(Cl)ccc1N=CN(C)C
class: inactive
--
compound: c1ccc(C2CO2)cc1 (stereo not given)
class: inactive
--
compound: c1ccc2c(c1)Nc1ccccc1S2
class: inactive
--
compound: Nc1ccc2ccccc2c1
class: inactive
--
compound: CCCCCCCCCC(CC)c1ccc(S(=O)(=O)O)cc1 (stereo not given)
class: active

* * *

# method_description: qHTS assay to identify small molecule antagonists of the estrogen receptor alpha (ER-alpha) signaling pathway using the BG1 cell line (AID 743080);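 also: BG1 cells stimulated with 17beta-estradiol alongside compound; nearly all actives have a fitted effect of over 25% in size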
# recorded_conditions: BG1Luc4E2 ERE-luciferase antagonist mode, luminescence; series mostly up to 70.3 µM
Results filed as inconclusive are left out. The source made the active and inactive calls. Calls follow the shape of the full dose curve.
Labels: active, inactive

compound: COP(=S)(OC)Oc1ccc(Sc2ccc(OP(=S)(OC)OC)cc2)cc1
class: active

compound: CNC(=S)S
class: inactive

compound: Clc1cccc(C(Cl)(Cl)Cl)n1
class: inactive

compound: O=C(O)c1nn(Cc2ccc(Cl)cc2Cl)c2ccccc12
class: inactive

compound: Clc1ccc(C(Cl)(Cl)Cl)cc1
class: inactive

compound: CN(C)P(=O)(N(C)C)N(C)C
class: inactive

compound: CCC1(c2ccc(N)cc2)CCC(=O)NC1=O (stereo not given)
class: inactive

compound: Cn1c(-c2ccccc2)cc(-c2ccccc2)[n+]1C
class: active

compound: O=C(O)CF
class: inactive

compound: Oc1ccc(Cl)cc1Cl
class: inactive

compound: C[N+](C)(C)CC(=O)[O-]
class: inactive

compound: CC(C)(c1ccc(OCC2CO2)cc1)c1ccc(OCC2CO2)cc1 (stereo not given)
class: inactive

compound: ClCc1ccccn1
class: inactive

compound: Cc1ccc([N+](=O)[O-])cc1
class: inactive

compound: CC1(C)C(C(=O)OC(C#N)c2cccc(Oc3ccccc3)c2)C1(C)C (stereo not given)
class: inactive

* * *

Each record here notes measured activity change.
# experimental_target: Androgen receptor (Homo sapiens)
# method_description: qHTS assay to identify small molecule agonists of the androgen receptor (AR) signaling pathway using the MDA cell line (AID 743040; also: % is scaled to controls: 0 for no effect and ±100 for the full control effect; nearly all actives have a fitted effect of over 20% in size)
# recorded_conditions: MDA-kb2 AR-luc cells, MMTV luciferase, 16 h; at 95 µM (top of the series); hits give high values
property_measured: activity change (%)

compound: N#Cc1nn(-c2c(Cl)cc(C(F)(F)F)cc2Cl)c(N)c1S(=O)C(F)(F)F (configuration not stated)
quantitative_readout: -12

compound: CC(C)(c1ccc(OCC2CO2)cc1)c1ccc(OCC2CO2)cc1 (configuration not stated)
quantitative_readout: -0.522

compound: C=CC(=O)OCC(CC)(COC(=O)C=C)COC(=O)C=C
quantitative_readout: -11.2

compound: CCC(=O)Nc1ccc(Cl)c(Cl)c1
quantitative_readout: -4.49

compound: Oc1ccc(Cl)cc1Cc1ccccc1
quantitative_readout: -7.19

compound: CNC(=O)Oc1cccc2c1OC(C)(C)C2
quantitative_readout: 1.74

compound: CC1=C(C(=O)Nc2ccccc2)SCCO1
quantitative_readout: 0.0315

src = PubChem BioAssay (Tox21)
